Hello, the source for this data is BindingDB's records for doi:10.1016/j.chembiol.2011.11.010, in case you need it.

# measurement_target: Mitogen-activated protein kinase 8 (Homo sapiens, UniProt P45983)
# Sequence (P45983 whole entry): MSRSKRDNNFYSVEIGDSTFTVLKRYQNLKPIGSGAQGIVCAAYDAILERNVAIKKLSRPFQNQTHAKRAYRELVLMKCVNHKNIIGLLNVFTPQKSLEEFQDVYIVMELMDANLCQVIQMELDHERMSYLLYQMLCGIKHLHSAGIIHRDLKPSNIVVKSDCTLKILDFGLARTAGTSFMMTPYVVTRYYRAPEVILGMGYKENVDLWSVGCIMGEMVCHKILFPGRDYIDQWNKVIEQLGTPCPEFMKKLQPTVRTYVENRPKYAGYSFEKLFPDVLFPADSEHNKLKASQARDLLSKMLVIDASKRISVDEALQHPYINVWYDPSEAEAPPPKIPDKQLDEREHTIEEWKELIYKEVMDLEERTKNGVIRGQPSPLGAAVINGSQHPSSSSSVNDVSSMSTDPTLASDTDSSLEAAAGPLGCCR
# run_description: JNK Kinase Assay
measure_name: log10 of IC50 (log10 of the value in µM)

[
  {
    "molecule": "CN(C)C/C=C/C(=O)Nc1cccc(C(=O)Nc2ccc(Nc3nccc(C(C#N)c4nc5ccccc5s4)n3)cc2)c1 (stereo unspecified)",
    "log10 of IC50": -1.89
  },
  {
    "molecule": "Cc1ccc(NC(=O)c2ccc(NC(=O)/C=C/CN(C)C)cc2)cc1Nc1nccc(-c2cccnc2)n1",
    "log10 of IC50": 0.89
  },
  {
    "molecule": "CN(C)C/C=C/C(=O)NCc1ccc(C(=O)Nc2cccc(Nc3nccc(-c4cccnc4)n3)c2)cc1",
    "log10 of IC50": 0.38
  },
  {
    "molecule": "N#CC(c1ccnc(NCCc2cccnc2)n1)c1nc2ccccc2s1 (stereo unspecified)",
    "log10 of IC50": -0.82
  },
  {
    "molecule": "CN(C)C/C=C/C(=O)Nc1ccc(C(=O)Nc2cccc(Nc3nccc(-c4cccnc4)n3)c2)cc1",
    "log10 of IC50": -0.09
  }
]

----------
# measurement_target: Mitogen-activated protein kinase 9 (Homo sapiens)
# Sequence (P45984 whole entry): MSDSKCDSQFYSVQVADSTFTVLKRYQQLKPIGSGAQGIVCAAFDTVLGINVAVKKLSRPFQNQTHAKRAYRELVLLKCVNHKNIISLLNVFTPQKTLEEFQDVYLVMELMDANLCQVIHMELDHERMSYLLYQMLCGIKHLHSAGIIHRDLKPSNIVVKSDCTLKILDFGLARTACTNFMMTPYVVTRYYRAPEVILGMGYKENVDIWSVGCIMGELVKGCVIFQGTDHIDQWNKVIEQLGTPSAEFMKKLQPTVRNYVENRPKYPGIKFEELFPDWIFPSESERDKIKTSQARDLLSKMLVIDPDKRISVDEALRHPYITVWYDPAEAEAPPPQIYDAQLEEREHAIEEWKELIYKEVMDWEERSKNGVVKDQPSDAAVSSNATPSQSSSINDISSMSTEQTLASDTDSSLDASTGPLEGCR
# run_description: JNK Kinase Assay

[
  {
    "molecule": "Cc1ccc(NC(=O)c2ccc(NC(=O)/C=C/CN(C)C)cc2)cc1Nc1nccc(-c2cccnc2)n1 [JNK-IN-1]",
    "IC50": "4.23 µM"
  },
  {
    "molecule": "CN(C)C/C=C/C(=O)NCc1ccc(C(=O)Nc2cccc(Nc3nccc(-c4cccnc4)n3)c2)cc1 [JNK-IN-4]",
    "IC50": "5.46 µM"
  },
  {
    "molecule": "N#CC(c1ccnc(NCCc2cccnc2)n1)c1nc2ccccc2s1 (stereo unspecified)",
    "IC50": "0.22 µM"
  },
  {
    "molecule": "CN(C)C/C=C/C(=O)Nc1cccc(C(=O)Nc2ccc(Nc3nccc(C(C#N)c4nc5ccccc5s4)n3)cc2)c1 (stereo unspecified) [JNK-IN-12]",
    "IC50": "0.0113 µM"
  },
  {
    "molecule": "CN(C)C/C=C/C(=O)Nc1ccc(C(=O)Nc2cccc(Oc3nccc(-c4cccnc4)n3)c2)cc1 [JNK-IN-3]",
    "IC50": "> 10 µM"
  },
  {
    "molecule": "CN(C)C/C=C/C(=O)Nc1ccc(C(=O)Nc2cccc(Nc3nccc(-c4cccnc4)n3)c2)cc1 [JNK-IN-2]",
    "IC50": "1.14 µM"
  }
]

----------
# measurement_target: Mitogen-activated protein kinase 10 (Homo sapiens)
# Sequence (P53779 whole entry): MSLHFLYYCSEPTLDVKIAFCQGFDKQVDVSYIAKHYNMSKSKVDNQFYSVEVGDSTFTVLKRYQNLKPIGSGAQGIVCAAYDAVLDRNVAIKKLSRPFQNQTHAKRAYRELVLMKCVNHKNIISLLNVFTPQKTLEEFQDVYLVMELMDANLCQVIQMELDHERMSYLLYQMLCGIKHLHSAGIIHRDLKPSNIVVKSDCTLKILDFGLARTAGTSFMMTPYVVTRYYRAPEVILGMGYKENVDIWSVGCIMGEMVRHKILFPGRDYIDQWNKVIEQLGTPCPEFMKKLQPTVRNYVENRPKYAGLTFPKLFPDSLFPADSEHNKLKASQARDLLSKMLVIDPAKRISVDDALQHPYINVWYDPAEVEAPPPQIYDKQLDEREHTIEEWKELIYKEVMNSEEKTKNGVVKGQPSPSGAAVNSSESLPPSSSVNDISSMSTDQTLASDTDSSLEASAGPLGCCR
# run_description: JNK Kinase Assay
pIC50: −log10 of the molar value.
Recorded pIC50 for the following molecules
measure_name: pIC50

[
  {
    "molecule": "CN(C)C/C=C/C(=O)Nc1cccc(C(=O)Nc2ccc(Nc3nccc(C(C#N)c4nc5ccccc5s4)n3)cc2)c1 (stereo not given)",
    "measurement_target": "Mitogen-activated protein kinase 10 (Homo sapiens)",
    "measure_name": "pIC50",
    "relation_qualifier": "=",
    "experimental_value": 7.96
  },
  {
    "molecule": "CN(C)C/C=C/C(=O)Nc1ccc(C(=O)Nc2cccc(Oc3nccc(-c4cccnc4)n3)c2)cc1",
    "measurement_target": "Mitogen-activated protein kinase 10 (Homo sapiens)",
    "measure_name": "pIC50",
    "relation_qualifier": "<",
    "experimental_value": 5.00
  },
  {
    "molecule": "O=C1c2ccccc2-c2n[nH]c3cccc1c23",
    "measurement_target": "Mitogen-activated protein kinase 10 (Homo sapiens)",
    "measure_name": "pIC50",
    "relation_qualifier": "=",
    "experimental_value": 6.72
  },
  {
    "molecule": "CN(C)C/C=C/C(=O)NCc1ccc(C(=O)Nc2cccc(Nc3nccc(-c4cccnc4)n3)c2)cc1",
    "measurement_target": "Mitogen-activated protein kinase 10 (Homo sapiens)",
    "measure_name": "pIC50",
    "relation_qualifier": "=",
    "experimental_value": 5.14
  },
  {
    "molecule": "Cc1ccc(NC(=O)c2ccc(NC(=O)/C=C/CN(C)C)cc2)cc1Nc1nccc(-c2cccnc2)n1",
    "measurement_target": "Mitogen-activated protein kinase 10 (Homo sapiens)",
    "measure_name": "pIC50",
    "relation_qualifier": "=",
    "experimental_value": 5.11
  }
]
